I'd appreciate it if you could supply activation at 10 µM values for the items below.
test system: uterus; test: Uterine contraction of an isolated uterus section in a Magnus tube; format: cell-based; settings: Rattus norvegicus; Table 1; Dose 1x10^-5 M; ratio to contraction by oxytocin (1mU) taken as 100%
Report the value in % with no unit label.

Lookup result for CCCCC(F)C(=O)CC[C@H]1[C@H](O)CC(=O)[C@@H]1C/C=C\CCCC(=O)OCC (some centres unmarked) [X-6] ; measured activation at 10 µM: 89

Lookup result for COCCCCC(C)(C)C(=O)CC[C@H]1[C@H](O)CC(=O)[C@@H]1C/C=C\CCCC(=O)OC [X-8] ; measured activation at 10 µM: 64

Lookup result for CCCCC(F)C(=O)/C=C/[C@H]1[C@H](O)CC(=O)[C@@H]1C/C=C\CCCC(=O)OC (some centres unmarked) [X-9] ; measured activation at 10 µM: 84

Lookup result for CCCCC(F)C(=O)CC[C@H]1[C@H](C)CC(=O)[C@@H]1CC(=O)CCCCC(=O)OCC (some centres unmarked) [X-2] ; measured activation at 10 µM: 82

Lookup result for CCCCCC(F)C(=O)CC[C@H]1[C@H](O)CC(=O)[C@@H]1C/C=C\CCCC(=O)OC (some centres unmarked) [X-10] ; measured activation at 10 µM: 80
